System: novel influenza virus (K09)
Protocol Description: microbe, parasite or virus in culture
Format: cell-based
Setup Conditions: K09; CC50/EC50
Exercise: for every item that follows, state its recorded SI value K09.

Lookup: For the compound COc1cccc(N2CCN(C(=O)c3c(-c4ccccc4Cl)noc3C)CC2)c1 , give its reported SI value K09.
Found: 801.282 to 3205.128

Lookup: For the compound Cc1onc(-c2ccc(OC(F)(F)F)cc2)c1C(=O)N1CCN(c2ccc(Cl)c(Cl)c2)CC1 , give its reported SI value K09.
Found: 2.5 to 8.13

Lookup: For the compound Nc1onc(-c2cccc(F)c2)c1C(=O)N1CCN(c2ccc(Cl)c(Cl)c2)CC1 , give its reported SI value K09.
Found: 2.59 to 8.85

Lookup: For the compound COc1cccc(N2CCN(C(=O)c3c(-c4cccc(OC(F)(F)F)c4)noc3N)CC2)c1 , give its reported SI value K09.
Found: 0.42 to 1.70

Lookup: For the compound COc1cccc(N2CCN(C(=O)c3c(-c4ccccc4OC(F)(F)F)noc3C)CC2)c1 , give its reported SI value K09.
Found: 320<

Lookup: For the compound Nc1onc(-c2ccc(OC(F)(F)F)cc2)c1C(=O)N1CCN(c2ccc(Cl)c(Cl)c2)CC1 , give its reported SI value K09.
Found: 0.32 to 1.59

Lookup: For the compound Cc1onc(-c2cccc(F)c2)c1C(=O)N1CCN(c2ccccc2O)CC1 , give its reported SI value K09.
Found: 200.321

Lookup: For the compound CCOC(=O)C1CCN(C(=O)c2c(-c3ccccc3Cl)noc2N)CC1 , give its reported SI value K09.
Found: 18.89 to 71.27
